Recorded values, source patent US20150004189A1.

Listed here are binders together with their documented IC50.
Test system: HLA-DP molecule DPB1*1401 (human)
Protocol: inhibition of radiolabeled peptide binding to purified HLA-DP

- Binder: "ATPEAKFDSFVAAFT [Poa p 5 peptide, position 121, ATPEAKFD5FVAAFT as printed in Table 8 (Peptide ID 3324.1570)]"
  IC50, nM: 2770
- Binder: "LIEKINAGFKAAVAA [Lol p 5 1 peptide, position 71, LIEKINAGFKAAVAA (Peptide ID 3324.1175)]"
  IC50, nM: 2420
- Binder: "DAFIAALTEALRVIA [Pha a 5 peptide, position 121, DAFIAALTEALRVIA (Peptide ID 3324.1432)]"
  IC50, nM: 29700
